# experimental parameters: in acetonitrile, 298.15 K
observed property: solubility (mole fraction)
One number for each entry.

[in] Find the recorded solubility (mole fraction) belonging to O.O=C([O-])[C@H](O)[C@@H](O)[C@H](O)[C@H](O)CO.O=C([O-])[C@H](O)[C@@H](O)[C@H](O)[C@H](O)CO.[Ca+2] and report it.
[out] 1.02e-05

----------
# experimental parameters: in n-propanol, 293.15 K
observed property: solubility (mole fraction)
One number for each entry.

[in] Find the recorded solubility (mole fraction) belonging to O.O=C([O-])[C@H](O)[C@@H](O)[C@H](O)[C@H](O)CO.O=C([O-])[C@H](O)[C@@H](O)[C@H](O)[C@H](O)CO.[Ca+2] and report it.
[out] 1.04e-05

----------
# experimental parameters: in acetonitrile, 293.15 K
observed property: solubility (mole fraction)
Numbers only.

[in] Find the recorded solubility (mole fraction) belonging to O.O=C([O-])[C@H](O)[C@@H](O)[C@H](O)[C@H](O)CO.O=C([O-])[C@H](O)[C@@H](O)[C@H](O)[C@H](O)CO.[Ca+2] and report it.
[out] 7.75e-06

----------
# experimental parameters: in water, 289.15 K
observed property: solubility (mole fraction)
Numbers only.

[in] Find the recorded solubility (mole fraction) belonging to O.O=C([O-])[C@H](O)[C@@H](O)[C@H](O)[C@H](O)CO.O=C([O-])[C@H](O)[C@@H](O)[C@H](O)[C@H](O)CO.[Ca+2] and report it.
[out] 0.0012

----------
# experimental parameters: in ethanol, 308.65 K
observed property: solubility (mole fraction)

[in] Find the recorded solubility (mole fraction) belonging to O.O=C([O-])[C@H](O)[C@@H](O)[C@H](O)[C@H](O)CO.O=C([O-])[C@H](O)[C@@H](O)[C@H](O)[C@H](O)CO.[Ca+2] and report it.
[out] 2.32e-05

----------
# experimental parameters: in water, 284.65 K
observed property: solubility (mole fraction)
Give bare numbers.

[in] Find the recorded solubility (mole fraction) belonging to O.O=C([O-])[C@H](O)[C@@H](O)[C@H](O)[C@H](O)CO.O=C([O-])[C@H](O)[C@@H](O)[C@H](O)[C@H](O)CO.[Ca+2] and report it.
[out] 0.00108

----------
# experimental parameters: in ethanol, 283.15 K
observed property: solubility (mole fraction)
Answers are plain numbers.

[in] Find the recorded solubility (mole fraction) belonging to O.O=C([O-])[C@H](O)[C@@H](O)[C@H](O)[C@H](O)CO.O=C([O-])[C@H](O)[C@@H](O)[C@H](O)[C@H](O)CO.[Ca+2] and report it.
[out] 1.06e-05

----------
# experimental parameters: in methanol, 313.65 K
observed property: solubility (mole fraction)
Give bare numbers.

[in] Find the recorded solubility (mole fraction) belonging to O.O=C([O-])[C@H](O)[C@@H](O)[C@H](O)[C@H](O)CO.O=C([O-])[C@H](O)[C@@H](O)[C@H](O)[C@H](O)CO.[Ca+2] and report it.
[out] 2.99e-05
